The measured values listed here are drawn from patent US12304910B2.

For JAK1 (Homo sapiens, UniProt P23458), measured IC50 is reported for the entries below.
reported property: IC50 (pM)

// worked examples, IC50 included
>  <compound>
NC(=O)c1cnc2[nH]ccc2c1NN1CCC[C@H](C(=O)NCC(F)(F)F)C1

>  <IC50 / pM>
290

$$$$
>  <compound>
NC(=O)c1cnc2[nH]ccc2c1NN1CCC[C@H](C(=O)NCC(F)F)C1

>  <IC50 / pM>
150

$$$$
>  <compound>
NC(=O)c1cnc2[nH]ccc2c1NN1CCC[C@@H](C(=O)NCC(F)(F)F)C1

>  <IC50 / pM>
410

$$$$
>  <compound>
N#CCNC(=O)[C@H]1CCCN(Nc2c(C(N)=O)cnc3[nH]ccc23)C1

>  <IC50 / pM>
390

$$$$
>  <compound>
CC1CCC(C(=O)NCC(F)(F)F)CN1Nc1c(C(N)=O)cnc2[nH]ccc12 (stereo not drawn)

>  <IC50 / pM>
1150

$$$$
>  <compound>
CN(c1ccnc2[nH]ccc12)N1CCCC(C(=O)NCC#N)C1 (stereo not drawn) [WO2016116025 WX14, reference compound]

>  <IC50 / pM>
19700

$$$$

a. CCCNC(=O)[C@H]1CCCN(Nc2c(C(N)=O)cnc3[nH]ccc23)C1
b. CNC(=O)c1cnc2[nH]ccc2c1NN1CCC[C@H](C(=O)NCC(F)(F)F)C1
c. NC(=O)c1cnc2[nH]ccc2c1NN1[C@@H]2CC[C@H]1C[C@@H](O)C2
Rank by IC50 (largest to smallest). Form entry: ranked labels (order as requested).
c, a, b

====

pIC50: −log10 of the molar value.
TYK2 (Homo sapiens): reported pIC50 for various compounds.
Sequence (P29597 whole entry): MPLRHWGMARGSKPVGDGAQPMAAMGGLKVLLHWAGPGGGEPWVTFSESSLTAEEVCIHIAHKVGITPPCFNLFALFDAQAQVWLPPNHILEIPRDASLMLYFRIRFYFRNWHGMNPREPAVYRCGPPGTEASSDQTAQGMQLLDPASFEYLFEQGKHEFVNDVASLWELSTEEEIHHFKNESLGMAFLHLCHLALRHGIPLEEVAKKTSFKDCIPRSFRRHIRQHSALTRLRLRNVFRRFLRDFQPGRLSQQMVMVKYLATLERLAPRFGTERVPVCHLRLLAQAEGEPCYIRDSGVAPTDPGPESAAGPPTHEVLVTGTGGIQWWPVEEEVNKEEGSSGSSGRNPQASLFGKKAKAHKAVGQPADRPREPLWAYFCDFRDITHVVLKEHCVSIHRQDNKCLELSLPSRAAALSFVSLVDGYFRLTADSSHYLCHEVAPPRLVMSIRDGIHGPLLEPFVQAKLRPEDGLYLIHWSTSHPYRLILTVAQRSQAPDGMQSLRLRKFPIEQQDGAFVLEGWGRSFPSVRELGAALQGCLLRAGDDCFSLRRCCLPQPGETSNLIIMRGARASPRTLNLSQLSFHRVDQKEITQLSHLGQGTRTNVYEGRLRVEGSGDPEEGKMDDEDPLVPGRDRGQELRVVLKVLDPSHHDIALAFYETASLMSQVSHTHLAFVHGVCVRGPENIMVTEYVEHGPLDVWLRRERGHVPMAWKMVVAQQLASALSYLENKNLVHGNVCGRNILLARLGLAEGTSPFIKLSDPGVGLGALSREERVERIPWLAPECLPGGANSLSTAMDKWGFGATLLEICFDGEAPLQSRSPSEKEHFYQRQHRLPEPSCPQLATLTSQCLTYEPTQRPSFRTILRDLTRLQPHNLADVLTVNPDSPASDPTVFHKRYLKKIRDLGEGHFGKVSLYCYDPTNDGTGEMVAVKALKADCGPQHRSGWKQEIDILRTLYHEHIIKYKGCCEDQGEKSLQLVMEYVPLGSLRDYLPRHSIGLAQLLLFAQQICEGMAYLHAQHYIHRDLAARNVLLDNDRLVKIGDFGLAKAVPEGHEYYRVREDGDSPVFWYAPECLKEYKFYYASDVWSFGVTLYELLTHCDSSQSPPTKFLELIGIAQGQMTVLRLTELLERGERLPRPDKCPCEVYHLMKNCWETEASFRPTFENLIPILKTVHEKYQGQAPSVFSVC
reported property: pIC50

>  <compound>
NC(=O)c1cnc2[nH]ccc2c1NN1CCC[C@H](C(=O)NCC(F)F)C1

>  <pIC50>
8.83

$$$$
>  <compound>
NC(=O)c1cnc2[nH]ccc2c1NN1CCC[C@H](C(=O)NCC(F)(F)F)C1

>  <pIC50>
8.48

$$$$
>  <compound>
N#CCNC(=O)[C@H]1CCCN(Nc2c(C(N)=O)cnc3[nH]ccc23)C1

>  <pIC50>
8.70

$$$$

P. NC(=O)c1cnc2[nH]ccc2c1NN1CCC[C@@H](C(=O)NCC(F)(F)F)C1
Q. CC(C)(C)OC(=O)N1CC2CN(Nc3c(C(N)=O)cnc4[nH]ccc34)CC2C1 (centres unmarked)
P or Q : whose pIC50 is greater? Reply with the label of the item you choose.
P

====

This document collects pIC50 values reported for JAK1 (Homo sapiens, UniProt P23458).
pIC50: −log10 of the molar value.
reported property: pIC50

>  <compound>
NC(=O)c1cnc2[nH]ccc2c1NN1CCC2(CCNC2=O)CC1

>  <pIC50>
7.11

$$$$
>  <compound>
NC(=O)c1cnc2[nH]ccc2c1NN1CCC[C@H](C(=O)NC2CC2)C1

>  <pIC50>
8.97

$$$$

P. CNC(=O)c1cnc2[nH]ccc2c1NN1CCC[C@H](C(=O)NCC(F)F)C1
Q. CN(c1ccnc2[nH]ccc12)N1CCCC(C(=O)NCC(F)(F)F)C1 (stereo not shown) [WO2016116025 WX15, reference compound]
Of P and Q , whose reported pIC50 is numerically smaller? Bench note: the answer is the label of the chosen record.
P

====

What follows is a record of IC50 for JAK3 (Homo sapiens, UniProt P52333).
reported property: IC50 (nM)

I. NC(=O)c1cnc2[nH]ccc2c1NN1CCC[C@H](C(=O)NC2CC2)C1
II. CNC(=O)c1cnc2[nH]ccc2c1NN1CCC[C@H](C(=O)NCC(F)F)C1
Which record shows the lower IC50: the first, I , or the second, II ? Please respond with the label that marks your chosen entry.
I

P. CCCNC(=O)[C@H]1CCCN(Nc2c(C(N)=O)cnc3[nH]ccc23)C1
Q. CC1CCC(C(=O)NCC(F)(F)F)CN1Nc1c(C(N)=O)cnc2[nH]ccc12 (centres unmarked)
R. NC(=O)c1cnc2[nH]ccc2c1NN1CCC[C@@H](C(=O)NCC(F)F)C1
S. CN(c1ccnc2[nH]ccc12)N1CCCC(C(=O)NCC#N)C1 (centres unmarked) [WO2016116025 WX14, reference compound]
Task field, ranking: reported IC50, descending order. Return the labels ranked in the requested order, please.
R, S, P, Q
(R: 224 nM, S: 68.9 nM, P: 15.9 nM, Q: 9 nM)

====

Assay: Liver microsome test (metabolic stability)
Type: in vitro ADME, human
Conditions: pH 7.4; human liver microsomes 0.5 mg/mL protein, compound 1 μmol/L, 37° C.; read-out: Clint (μL/min/mg protein)
reported property: microsomal CLint at 1 μmol/L (µL/min/mg)

>  <molecule>
C[C@@H]1CCN(C(=O)CC#N)C[C@@H]1N(C)c1ncnc2[nH]ccc12 [Tofacitinib, reference compound]

>  <microsomal CLint at 1 μmol/L [µL/min/mg]>
7

$$$$

A. NC(=O)c1cnc2[nH]ccc2c1NN1CCC[C@H](C(=O)NCC(F)F)C1
B. NC(=O)c1cnc2[nH]ccc2c1NN1CCC[C@H](C(=O)NCC(F)(F)F)C1
Select one. Lower microsomal CLint at 1 μmol/L: A or B Please indicate the selected item by its label.
A
(A: 4.2 µL/min/mg, B: 17 µL/min/mg)

====

Biological target: JAK2 (Homo sapiens, UniProt O60674)
Sequence (O60674 whole entry): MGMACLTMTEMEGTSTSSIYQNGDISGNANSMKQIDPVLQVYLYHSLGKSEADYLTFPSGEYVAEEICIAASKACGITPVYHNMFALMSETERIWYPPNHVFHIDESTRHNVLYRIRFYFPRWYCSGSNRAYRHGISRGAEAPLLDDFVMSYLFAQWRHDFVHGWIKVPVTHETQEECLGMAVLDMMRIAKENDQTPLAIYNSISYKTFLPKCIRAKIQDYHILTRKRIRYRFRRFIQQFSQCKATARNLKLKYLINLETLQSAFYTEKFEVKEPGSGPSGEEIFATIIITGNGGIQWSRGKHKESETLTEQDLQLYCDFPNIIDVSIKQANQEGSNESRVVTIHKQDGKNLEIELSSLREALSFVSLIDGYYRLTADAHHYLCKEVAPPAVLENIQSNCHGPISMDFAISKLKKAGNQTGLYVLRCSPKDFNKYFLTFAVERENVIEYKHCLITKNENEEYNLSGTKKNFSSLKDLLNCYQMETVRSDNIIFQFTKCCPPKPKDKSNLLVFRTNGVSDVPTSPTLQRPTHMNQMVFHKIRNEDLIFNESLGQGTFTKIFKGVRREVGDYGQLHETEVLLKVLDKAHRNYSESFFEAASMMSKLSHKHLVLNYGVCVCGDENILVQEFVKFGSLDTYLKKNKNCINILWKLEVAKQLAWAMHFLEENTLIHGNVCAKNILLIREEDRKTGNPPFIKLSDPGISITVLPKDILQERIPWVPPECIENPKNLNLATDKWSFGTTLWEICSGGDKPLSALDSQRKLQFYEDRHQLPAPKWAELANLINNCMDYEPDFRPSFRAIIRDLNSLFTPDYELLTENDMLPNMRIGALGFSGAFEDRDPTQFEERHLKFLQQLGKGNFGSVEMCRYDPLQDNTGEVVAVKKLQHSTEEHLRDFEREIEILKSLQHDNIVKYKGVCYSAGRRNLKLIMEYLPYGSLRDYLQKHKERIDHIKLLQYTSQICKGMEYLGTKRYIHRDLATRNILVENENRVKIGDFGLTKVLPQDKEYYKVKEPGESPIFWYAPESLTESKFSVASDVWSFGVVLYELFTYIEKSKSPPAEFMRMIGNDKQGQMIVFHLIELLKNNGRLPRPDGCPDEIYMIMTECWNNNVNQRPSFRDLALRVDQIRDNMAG
reported property: IC50 (nM)

A. NC(=O)c1cnc2[nH]ccc2c1NN1CCC[C@H](C(=O)NC2CC2)C1 [Example 6]
B. CN(c1ccnc2[nH]ccc12)N1CCCC(C(=O)NCC(F)(F)F)C1 (stereo not drawn) [WO2016116025 WX15, reference compound]
Lab note: check whether A or B shows the higher recorded IC50. I would appreciate it if you answered with the label of your choice.
B
(B: 297 nM, A: 44.6 nM)

A. NC(=O)c1cnc2[nH]ccc2c1NN1CCC(C(=O)NCC(F)(F)F)CC1 [Example 19]
B. NC(=O)c1cnc2[nH]ccc2c1NN1[C@@H]2CC[C@H]1C[C@@H](O)C2 [Example 11]
Looking only at measured IC50, which entry is lower, A or B ? Kindly give the label for the entry you pick.
B

I. NC(=O)c1cnc2[nH]ccc2c1NN1CCC[C@H](C(=O)NCC(F)(F)F)C1 [Example 1]
II. CN(c1ccnc2[nH]ccc12)N1CCCC(C(=O)NCC#N)C1 (stereo not drawn) [WO2016116025 WX14, reference compound]
III. CCOC(=O)[C@H]1CCCN(Nc2c(C(N)=O)cnc3[nH]ccc23)C1 [Example 8]
IV. CC(C)(C)OC(=O)N1CC2CN(Nc3c(C(N)=O)cnc4[nH]ccc34)CC2C1 (stereo not drawn) [Example 12]
Sequence the entries by IC50, beginning with the highest number. Give the labels in the order specified.
II, III, IV, I
(II: 126 nM, III: 46.5 nM, IV: 16.7 nM, I: 2.26 nM)

====

Assay: Liver microsome test (metabolic stability)
Format: in vitro ADME, human
Settings: pH 7.4; human liver microsomes 0.5 mg/mL protein, compound 1 μmol/L, 37° C.
reported property: half-life at 1 μmol/L (h)

>  <molecule>
NC(=O)c1cnc2[nH]ccc2c1NN1CCC[C@H](C(=O)NCC(F)(F)F)C1

>  <half-life at 1 μmol/L / h>
1.36

$$$$

a. NC(=O)c1cnc2[nH]ccc2c1NN1CCC[C@H](C(=O)NCC(F)F)C1
b. C[C@@H]1CCN(C(=O)CC#N)C[C@@H]1N(C)c1ncnc2[nH]ccc12 [Tofacitinib, reference compound]
Record comparison, field half-life at 1 μmol/L: mark the lower of a and b . Reply briefly: the label of your chosen item.
b
